Molecular target: T1, NativeRPtag(large)_with_Tags_and_Cys (Thermoanaerobacter tengcongensis)
T1 construct: Unlabeled in anisotropy assays; coupled through the engineered N-terminal Cys to SulfoLink agarose or maleimide plates in column, pull-down and ELISA assays
T1 chain: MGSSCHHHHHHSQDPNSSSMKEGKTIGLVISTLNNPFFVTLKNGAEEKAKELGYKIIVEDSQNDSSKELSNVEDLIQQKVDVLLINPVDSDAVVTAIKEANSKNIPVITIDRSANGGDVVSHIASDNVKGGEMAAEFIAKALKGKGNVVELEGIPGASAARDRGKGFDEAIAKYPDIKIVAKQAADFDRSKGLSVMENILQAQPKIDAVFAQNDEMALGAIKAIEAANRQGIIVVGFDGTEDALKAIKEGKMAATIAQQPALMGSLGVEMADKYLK
Assay: fluorescence anisotropy, association kinetics
No end group written: not given here. *: point of attachment. RhodamineB = CCN(CC)c1ccc2c(-c3ccccc3C(=O)*)c3ccc(=[N+](CC)CC)cc-3oc2c1
# if value of Keq (S-S*) reaches 2, tag t; if it stays below, tag f

# input Identify whether the reported Keq (S-S*) of the following binder is 2 or greater: RhodamineB-KIANFIPAELKLITKA [RPtag(small) Nd2, Cd3, p5a, e18a]
# output f
